biological target: Artificial Cell Surface (ACS): biotinylated cell surface proteins from mononuclear cells coupled to streptavidin-sepharose; test: adsorption on ACS column, MALDI-TOF MS
Lab note: compare Percent Absorbed against 40%. Equal or greater, write yes (1). Smaller, write no (0).

Here are 5 binders together with their reported answers.
YSVVLLLRLAKTYETTLEKCCAAADPHECYAKVF [Asp-N-generated albumin fragment SEQ ID NO: 223]: yes (1)
LCTVATLR [trypsin-generated albumin fragment SEQ ID NO: 202 LCTVATLR]: no (0)
LKECCEKPLLEK [trypsin-generated albumin fragment SEQ ID NO: 201 …]: no (0)
KYLYEIAR [trypsin-generated albumin fragment SEQ ID NO: 194 KYLYEIAR]: yes (1)
FKDLGEENFK [trypsin-generated albumin fragment SEQ ID NO: 213 …]: no (0)

# input for lookup
Textbook exercise: given the entry VFLGMFLYEYARRHPDYSVVLLLRLAKTYETTLEKCCAAA [Asp-N-generated albumin fragment SEQ ID NO: 227] , state whether its Percent Absorbed is greater than or equal to 40%.
yes (1)
